experimental target: CCR4 (Homo sapiens (Human))
assay procedure: Calcium mobilization (Ca Flux) assay
Format: cell-based
Protocol: Calcium Mobilization Assay. Calcium mobilization experiments may be performed by labeling the human T-cell line CEM with […] dye (45 min at room temperature), washing with PBS, and re-suspending into flux buffer (HBSS with 1% FBS).
pIC50: −log10 of the molar value. Where a name gives a salt, the structure may show the parent alone.
pIC50 values by entry

>  <compound>
CC1CN(c2cnc3c(C(F)(F)F)nn(C(C)c4ccc(Cl)cc4Cl)c3n2)CCC1N1CCCCC1 (stereo not drawn) [Example 10, hydrochloride]

>  <pIC50>
< 6.30

$$$$
>  <compound>
CCC1CN(c2cnc3c(C#N)nn(C(C)c4ccc(Cl)cc4Cl)c3n2)CCC1N1CCCCC1 (stereo not drawn) [Example 7, 2,2,2-trifluoroacetate]

>  <pIC50>
6.30 to 7.00

$$$$
>  <compound>
C[C@@H]1CC(c2cnc3c(C#N)nn([C@H](C)c4ccc(Cl)cc4Cl)c3n2)=CCC1N1CCC[C@H]1C (stereo partly drawn)

>  <pIC50>
> 7.00

$$$$
>  <compound>
Cc1nn([C@H](C)c2ccc(Cl)cc2Cl)c2nc(N3CC[C@H](N4CCC[C@H]4CO)[C@H](C(N)=O)C3)cnc12 [Example 63, hydrochloride]

>  <pIC50>
6.30 to 7.00

$$$$
>  <compound>
Cc1nn([C@H](C)c2ccc(Cl)cc2Cl)c2nc(C3=CCC(N4CCC[C@H]4CO)CC3)cnc12 (stereo partly drawn)

>  <pIC50>
6.30 to 7.00

$$$$
>  <compound>
Cc1nn([C@H](C)c2ccc(Cl)cc2Cl)c2nc(N3CCC(C4CCCN(CCC(=O)O)C4)C(C)C3)cnc12 (stereo partly drawn) [Example 67, hydrochloride]

>  <pIC50>
6.30 to 7.00

$$$$

###

IC50 values by entry
experimental target: CCR4 (Homo sapiens (Human), UniProt P51679)
Sequence (P51679 whole entry): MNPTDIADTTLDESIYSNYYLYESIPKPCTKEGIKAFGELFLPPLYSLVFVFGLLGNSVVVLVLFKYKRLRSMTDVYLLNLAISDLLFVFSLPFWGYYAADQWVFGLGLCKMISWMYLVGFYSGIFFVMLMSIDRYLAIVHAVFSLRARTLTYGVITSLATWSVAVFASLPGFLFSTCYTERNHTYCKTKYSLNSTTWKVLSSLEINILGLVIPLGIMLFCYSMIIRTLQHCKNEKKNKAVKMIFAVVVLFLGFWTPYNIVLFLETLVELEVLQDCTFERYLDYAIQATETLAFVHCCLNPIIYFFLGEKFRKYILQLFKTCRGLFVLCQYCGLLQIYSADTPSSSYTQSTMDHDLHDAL
assay procedure: Calcium mobilization (Ca Flux) assay
Format: cell-based
Procedure: Calcium Mobilization Assay. Calcium mobilization experiments may be performed by labeling the human T-cell line CEM with […] dye (45 min at room temperature), washing with PBS, and re-suspending into flux buffer (HBSS with 1% FBS).
Structures can show the parent of a compound that is named as a salt.

>  <compound>
COC(C[C@@H]1CCCN1C1CCN(c2cnc3c(C)nn([C@H](C)c4ccc(Cl)cc4Cl)c3n2)CC1C)C(=O)O (mixture of isomers)

>  <IC50>
> 500 nM

$$$$
>  <compound>
CC1CC(c2cnc3c(C#N)nn([C@H](C)c4ccc(Cl)cc4Cl)c3n2)=CCC1N1CCC[C@H]1CC(=O)O (mixture of isomers) [Example 85, 2,2,2-trifluoroacetate]

>  <IC50>
100 to 500 nM

$$$$
>  <compound>
CC1CC(c2cnc3c(C(F)(F)F)nn([C@H](C)c4ccc(Cl)cc4Cl)c3n2)=CCC1N1CCC[C@H]1C (some centres unmarked)

>  <IC50>
100 to 500 nM

$$$$
>  <compound>
Cc1nn([C@H](C)c2ccc(Cl)cc2Cl)c2nc(C3=CCC(N4CCC[C@H]4C(=O)O)C(C)C3)cnc12 (some centres unmarked) [Example 70, trifluoroacetate]

>  <IC50>
100 to 500 nM

$$$$
>  <compound>
CNC(=O)[C@@H]1CCCN1[C@H]1CC=C(c2cnc3c(C#N)nn([C@H](C)c4ccc(Cl)cc4Cl)c3n2)C[C@H]1C [Example 91, trifluoroacetate]

>  <IC50>
100 to 500 nM

$$$$
>  <compound>
Cc1nn([C@H](C)c2ccc(Cl)cc2Cl)c2nc(C3=CCC(N4CCC[C@H]4CO)C(C)C3)cnc12 (some centres unmarked)

>  <IC50>
< 100 nM

$$$$
>  <compound>
C[C@@H]1CC(c2cnc3c(C#N)nn([C@H](C)c4ccc(Cl)cc4Cl)c3n2)=CC[C@@H]1N1CCC[C@H]1CNS(C)(=O)=O [Example 82, hydrochloride]

>  <IC50>
100 to 500 nM

$$$$
>  <compound>
Cc1nn([C@H](C)c2ccc(Cl)cc2Cl)c2nc(N3CCC(C4CCCNC4)C(C)C3)cnc12 (some centres unmarked) [Example 66, hydrochloride]

>  <IC50>
100 to 500 nM

$$$$
>  <compound>
Cc1nn([C@H](C)c2ccc(Cl)cc2Cl)c2nc(C3=CC[C@H](N4CCC[C@H]4CCC(=O)O)[C@H](C)C3)cnc12 [Example 71, hydrochloride]

>  <IC50>
< 100 nM

$$$$
>  <compound>
CCOC(=O)c1nn(C(C)c2ccc(Cl)cc2Cl)c2nc(N3CCC(N4CCCCC4)C(C)C3)cnc12 (centres unmarked) [Example 2, hydrochloride]

>  <IC50>
100 to 500 nM

$$$$
>  <compound>
Cc1nn([C@H](C)c2ccc(Cl)cc2Cl)c2nc(N3CC[C@H](N4CC=CC4)[C@H](C)C3)cnc12 [Example 17, hydrochloride]

>  <IC50>
100 to 500 nM

$$$$
>  <compound>
C[C@@H]1CN(c2cnc3c(C#N)nn([C@H](C)c4ccc(Cl)cc4Cl)c3n2)CC[C@@H]1N1CCC[C@H]1CCC(=O)O [Example 43, hydrochloride]

>  <IC50>
< 100 nM

$$$$
>  <compound>
C[C@@H]1CC(c2cnc3c(C#N)nn([C@H](C)c4ccc(Cl)cc4Cl)c3n2)=CC[C@@H]1N1CCC[C@H]1CO

>  <IC50>
< 100 nM

$$$$
>  <compound>
Cc1nn([C@H](C)c2ccc(Cl)cc2Cl)c2nc(N3CC(C)C(N4CCCC4)C[C@@H]3C)cnc12 (some centres unmarked) [Example 18, hydrochloride]

>  <IC50>
100 to 500 nM

$$$$
>  <compound>
Cc1nn([C@H](C)c2ccc(Cl)cc2Cl)c2nc(N3CC[C@H](N4CCC[C@H]4C)[C@H](C(=O)O)C3)cnc12 [Example 30, hydrochloride]

>  <IC50>
100 to 500 nM

$$$$
>  <compound>
Cc1nn([C@H](C)c2ccc(Cl)cc2Cl)c2nc(N3CCC(N4CCC[C@H]4CCC(=O)O)C[C@@H]3C)cnc12 (mixture of isomers) [Example 50, 2,2,2-trifluoroacetate]

>  <IC50>
> 500 nM

$$$$
>  <compound>
Cc1nn([C@H](C)c2ccc(Cl)cc2Cl)c2nc(N3CCC(N4CCC[C@H]4C4CC4C(=O)O)C(C)C3)cnc12 (mixture of isomers)

>  <IC50>
> 500 nM

$$$$
>  <compound>
CCN(CC1(O)COC1)C1CC=C(c2cnc3c(C#N)nn([C@H](C)c4ccc(Cl)cc4Cl)c3n2)CC1C (some centres unmarked)

>  <IC50>
100 to 500 nM

$$$$
>  <compound>
Cc1nn([C@H](C)c2ccc(Cl)cc2Cl)c2nc(N3CC[C@H](N4CCC[C@H]4CCC(N)=O)[C@H](C)C3)cnc12 [Example 44, hydrochloride]

>  <IC50>
< 100 nM

$$$$
>  <compound>
C[C@H](c1ccc(Cl)cc1Cl)n1nc(C#N)c2ncc(N3CC[C@@H](N4CCCCC4)[C@@H](CO)C3)nc21 [Example 28, hydrochloride]

>  <IC50>
100 to 500 nM

$$$$
>  <compound>
CC1CCCCN1C1CCN(c2cnc3c(C(N)=O)nn(C(C)c4ccc(Cl)cc4Cl)c3n2)CC1 (centres unmarked) [Example 3, hydrochloride]

>  <IC50>
> 500 nM

$$$$
>  <compound>
C[C@@H]1CN(c2cnc3c(C#N)nn([C@H](C)c4ccc(Cl)cc4Cl)c3n2)CC[C@@H]1N1CCC[C@H]1CCC(N)=O [Example 48, 2,2,2-trifluoroacetate]

>  <IC50>
< 100 nM

$$$$
>  <compound>
C[C@@H]1CN(c2cnc3c(C#N)nn([C@H](C)c4ccc(Cl)cc4Cl)c3n2)CC[C@@H]1N1CCC[C@H]1CO [Example 33, hydrochloride]

>  <IC50>
< 100 nM

$$$$
>  <compound>
Cc1nn([C@H](C)c2ccc(Cl)cc2F)c2nc(N3CC[C@H](N4CCC[C@H]4CCC(=O)O)[C@H](C)C3)cnc12 [Example 49, 2,2,2-trifluoroacetate]

>  <IC50>
100 to 500 nM

$$$$
>  <compound>
CCOC(=O)c1nn(Cc2ccc(Cl)cc2Cl)c2nc(N3CCC(N4CCCCC4)C(C)C3)cnc12 (centres unmarked) [Example 11, hydrochloride]

>  <IC50>
100 to 500 nM

$$$$
>  <compound>
C[C@H](c1ccc(Cl)cc1Cl)n1nc(C#N)c2ncc(N3CC[C@@H](N4CCCCC4)[C@@H](C)C3)nc21 [Example 24, hydrochloride]

>  <IC50>
> 500 nM

$$$$
